Measured on: PD brain-derived a-syn aggregates (Homo sapiens)
Construct: from tissue; host or cells: human PD donor brain, sarkosyl-insoluble 100,000 x g pellet
Experiment summary: Micro-radiobinding competition assay against Example-1 [^3H-1] (Table 8)
Format: binding
Condition label: 1 μM non-radiolabelled example compound vs Example-1 [^3H-1] ligand; human PD brain-derived a-syn aggregates
Competition at 1 μM (%) listing for selected molecules.
Answer with a number only, understood to be in %.

Illustrative cases are given below, each with its answer.
>  <Smiles code>
O=C1c2cn(-c3ccc(N4CC[C@H](F)C4)nc3)nc2CN1c1cccnn1

>  <Measured on>
PD brain-derived a-syn aggregates (Homo sapiens)

>  <Assay metric>
Competition at 1 μM (%)

>  <Endpoint result>
81

$$$$
>  <Smiles code>
Cc1c2c(nn1-c1ccc(N3CC[C@@H](F)C3)nc1)CN(c1cnn(C)c1)C2=O

>  <Measured on>
PD brain-derived a-syn aggregates (Homo sapiens)

>  <Assay metric>
Competition at 1 μM (%)

>  <Endpoint result>
39

$$$$
>  <Smiles code>
CC(C)n1cc(N2Cc3nn(-c4ccc(N5CC[C@H](F)C5)nc4)cc3C2=O)cn1

>  <Measured on>
PD brain-derived a-syn aggregates (Homo sapiens)

>  <Assay metric>
Competition at 1 μM (%)

>  <Endpoint result>
51

$$$$
>  <Smiles code>
O=C1c2cn(-c3ccc(N4CC[C@@H](F)C4)nc3)nc2CN1c1ccc(F)cc1

>  <Measured on>
PD brain-derived a-syn aggregates (Homo sapiens)

>  <Assay metric>
Competition at 1 μM (%)

>  <Endpoint result>
96

$$$$

-- ask Dear colleague, I am looking for the recorded Competition at 1 μM (%) of the following molecule: `COc1ccc(N2Cc3nn(-c4ccc(N5CC[C@@H](F)C5)nc4)cc3C2=O)cc1`
-- reply 99

-- ask Dear colleague, I am looking for the recorded Competition at 1 μM (%) of the following molecule: `O=C1c2cn(-c3ccc(N4CCCC4)nc3)nc2CN1c1cccnc1F`
-- reply 66

-- ask Dear colleague, I am looking for the recorded Competition at 1 μM (%) of the following molecule: `Cl.O=C1c2cn(-c3ccc(N4CCCC4)nc3)nc2CN1c1ccc(F)nc1`
-- reply 84

-- ask Dear colleague, I am looking for the recorded Competition at 1 μM (%) of the following molecule: `O=C1c2cn(-c3ccc(N4CC[C@@H](F)C4)nc3)nc2CN1c1ccccc1O`
-- reply 65

-- ask Dear colleague, I am looking for the recorded Competition at 1 μM (%) of the following molecule: `O=C1c2cn(-c3ccc(N4CC[C@H](F)C4)nc3)nc2CN1c1ccc(F)cc1`
-- reply 95

###

Measured on: PD brain-derived a-syn aggregates (Homo sapiens, UniProt P37840)
Construct: from tissue; host or cells: human PD donor brain, sarkosyl-insoluble 100,000 x g pellet
Experiment summary: Micro-radiobinding competition assay against Example-1 [^3H-1] (Table 8)
Format: binding
Condition label: 100 nM non-radiolabelled example compound vs Example-1 [^3H-1] ligand; human PD brain-derived a-syn aggregates
Assay metric: Competition at 100 nM (%)
Answer with a number only, understood to be in %.

-- ask Dear colleague, I am looking for the recorded Competition at 100 nM (%) of the following compound: `Cc1c2c(nn1-c1ccc(N3CC[C@@H](F)C3)nc1)CN(c1ccccn1)C2=O`
-- reply 34

-- ask Dear colleague, I am looking for the recorded Competition at 100 nM (%) of the following compound: `N#Cc1ccc(N2Cc3nn(-c4ccc(N5CC[C@H](F)C5)nc4)cc3C2=O)cc1`
-- reply 86

-- ask Dear colleague, I am looking for the recorded Competition at 100 nM (%) of the following compound: `Nc1cc(N2Cc3nn(-c4ccc(N5CCCC5)nc4)cc3C2=O)ccc1F`
-- reply 90

Hello, the source for this data is patent US12552800B2, in case you need it.
